# measured on: MKNK1 (human)
# experiment description: radiometric filter-binding kinase assay
# test parameters: compound 10.0 µM
reported property: residual activity (%)
# output: bare number, implied unit %

Asked: Look up residual activity with MKNK1 (human) for this compound: N#Cc1c(C2CCNCC2)cc(-c2c(O)cccc2OCC2CC2)nc1N
Given back: 90

Asked: Look up residual activity with MKNK1 (human) for this compound: CCn1c(-c2nonc2N)nc2cncc(CNC3CCNCC3)c21
Given back: 90

Asked: Look up residual activity with MKNK1 (human) for this compound: CC(C)(C#N)c1ccc(N2C(=O)OCc3cnc4ccc(-c5cnc6ccccc6c5)cc4c32)cc1
Given back: 90

Asked: Look up residual activity with MKNK1 (human) for this compound: CNc1nc(-c2ccc3c(N)n[nH]c3c2)cc(N2C[C@@H](C(=O)NC3CCCCC3)CC[C@H]2C)n1
Given back: 92

Asked: Look up residual activity with MKNK1 (human) for this compound: Cc1cccc(Nc2nn(C)c3ncnc(N)c23)c1
Given back: 96

Asked: Look up residual activity with MKNK1 (human) for this compound: CCCC(CCC)C(=O)O
Given back: 112

Asked: Look up residual activity with MKNK1 (human) for this compound: Cc1nc(-c2ccc(OCC(C)C)c(C#N)c2)sc1C(=O)O
Given back: 95

Asked: Look up residual activity with MKNK1 (human) for this compound: NC(=O)c1ccc(-c2ccc(Oc3cncc4sc(-c5nn[nH]n5)cc34)cc2)cc1
Given back: 84

====

Field: residual activity. Provide a value for each of the compounds that follow.
# measured on: MARK3 (human) (UniProt P27448)
# Sequence (P27448 whole entry, looked up): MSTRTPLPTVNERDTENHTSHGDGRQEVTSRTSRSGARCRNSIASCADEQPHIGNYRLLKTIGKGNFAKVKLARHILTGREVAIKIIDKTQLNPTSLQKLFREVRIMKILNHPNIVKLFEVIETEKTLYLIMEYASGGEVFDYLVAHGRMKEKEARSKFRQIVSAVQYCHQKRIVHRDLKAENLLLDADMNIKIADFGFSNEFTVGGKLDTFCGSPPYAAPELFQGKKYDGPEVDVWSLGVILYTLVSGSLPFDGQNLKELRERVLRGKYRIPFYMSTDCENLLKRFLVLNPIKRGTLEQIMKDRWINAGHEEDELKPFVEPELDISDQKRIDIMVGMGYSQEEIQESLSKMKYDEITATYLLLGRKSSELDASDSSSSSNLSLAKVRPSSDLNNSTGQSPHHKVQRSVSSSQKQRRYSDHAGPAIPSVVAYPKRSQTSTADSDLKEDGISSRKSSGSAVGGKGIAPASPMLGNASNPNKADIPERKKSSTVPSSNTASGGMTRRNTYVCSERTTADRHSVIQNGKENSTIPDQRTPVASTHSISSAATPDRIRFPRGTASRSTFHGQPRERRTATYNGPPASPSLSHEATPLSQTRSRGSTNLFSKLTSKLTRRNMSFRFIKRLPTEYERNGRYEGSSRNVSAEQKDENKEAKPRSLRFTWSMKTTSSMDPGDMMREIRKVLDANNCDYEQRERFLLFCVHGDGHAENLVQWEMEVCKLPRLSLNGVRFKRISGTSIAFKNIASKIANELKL
# experiment description: radiometric filter-binding kinase assay
# test parameters: compound 10.0 µM
The reply must contain the numeric value and, after it, the unit.

Asked: GET /values?readout=residual activity&item= NS(=O)(=O)OC[C@@H]1C[C@@H](n2ccc3c(N[C@H]4CCc5ccccc54)ncnc32)C[C@@H]1O
Given back: 100%

Asked: GET /values?readout=residual activity&item= O=C(NOCC(O)CO)c1ccc(F)c(F)c1Nc1ccc(I)cc1Cl (centres undefined)
Given back: 88%

Asked: GET /values?readout=residual activity&item= Cc1ccc2c(c1)C(=O)[C@@]1(O)CCN(c3ccccc3)C1=N2
Given back: 91%

Asked: GET /values?readout=residual activity&item= CCc1cncnc1N1CCN(Cc2nc3cc(C(F)(F)F)ccc3[nH]2)CC1
Given back: 82%

====

# measured on: IKBKB (human)
# experiment description: radiometric filter-binding kinase assay
# test parameters: compound 1.0 µM
Field: residual activity. Provide a value for each of the compounds that follow.
# output: bare number, implied unit %

Asked: GET /values?readout=residual activity&item= NCC(=O)Nc1ccc(-n2nc(C(F)(F)F)cc2-c2ccc3c(ccc4ccccc43)c2)cc1
Given back: 87

Asked: GET /values?readout=residual activity&item= CCn1c(-c2nonc2N)nc2cncc(CNC3CCNCC3)c21
Given back: 97

Asked: GET /values?readout=residual activity&item= COc1ccc2c(c1)c1c3c(c4c5ccccc5n(C)c4c1n2CC(O)CN(C)C)C(=O)NC3=O (stereo unspecified)
Given back: 94

Asked: GET /values?readout=residual activity&item= O=C(NCCCNc1nc(Nc2cccc(CN3CCOCC3)c2)ncc1C1CC1)C1CCC1
Given back: 122

Asked: GET /values?readout=residual activity&item= Cc1ccc(-c2ccc3c(ccc4sc5c(c43)NC[C@@H](C)NC5=O)n2)cn1
Given back: 109

Asked: GET /values?readout=residual activity&item= CCNc1nc(Nc2cc(F)c(C(=O)N3CCOCC3)cc2OC)ncc1C(F)(F)F
Given back: 91

====

Field: residual activity. Provide a value for each of the compounds that follow.
# measured on: MST4 (human)
# experiment description: radiometric filter-binding kinase assay
# test parameters: compound 10.0 µM
# output: bare number, implied unit %

Asked: GET /values?readout=residual activity&item= CCCCCc1ccc(/C=C/[C@H](O)[C@@H](CO)NC)cc1
Given back: 108

Asked: GET /values?readout=residual activity&item= Cc1ccc(-c2ccc3c(ccc4sc5c(c43)NC[C@@H](C)NC5=O)n2)cn1
Given back: 91

Asked: GET /values?readout=residual activity&item= COc1cc(C(=O)N2CCOCC2)c(F)cc1Nc1ncc(C(F)(F)F)c(NC2CC2)n1
Given back: 87

Asked: GET /values?readout=residual activity&item= NCC(=O)Nc1ccc(-n2nc(C(F)(F)F)cc2-c2ccc3c(ccc4ccccc43)c2)cc1
Given back: 72

Asked: GET /values?readout=residual activity&item= Cc1ccc(=O)n(-c2ccccc2)c1
Given back: 102

Asked: GET /values?readout=residual activity&item= CC(C)C[C@H](NC(=O)CNC(=O)c1cc(Cl)ccc1Cl)B1OC(=O)CC(CC(=O)O)(C(=O)O)O1 (stereo partly specified)
Given back: 122

====

# measured on: PKN2 (human) (UniProt Q16513)
# Sequence (Q16513 whole entry, looked up): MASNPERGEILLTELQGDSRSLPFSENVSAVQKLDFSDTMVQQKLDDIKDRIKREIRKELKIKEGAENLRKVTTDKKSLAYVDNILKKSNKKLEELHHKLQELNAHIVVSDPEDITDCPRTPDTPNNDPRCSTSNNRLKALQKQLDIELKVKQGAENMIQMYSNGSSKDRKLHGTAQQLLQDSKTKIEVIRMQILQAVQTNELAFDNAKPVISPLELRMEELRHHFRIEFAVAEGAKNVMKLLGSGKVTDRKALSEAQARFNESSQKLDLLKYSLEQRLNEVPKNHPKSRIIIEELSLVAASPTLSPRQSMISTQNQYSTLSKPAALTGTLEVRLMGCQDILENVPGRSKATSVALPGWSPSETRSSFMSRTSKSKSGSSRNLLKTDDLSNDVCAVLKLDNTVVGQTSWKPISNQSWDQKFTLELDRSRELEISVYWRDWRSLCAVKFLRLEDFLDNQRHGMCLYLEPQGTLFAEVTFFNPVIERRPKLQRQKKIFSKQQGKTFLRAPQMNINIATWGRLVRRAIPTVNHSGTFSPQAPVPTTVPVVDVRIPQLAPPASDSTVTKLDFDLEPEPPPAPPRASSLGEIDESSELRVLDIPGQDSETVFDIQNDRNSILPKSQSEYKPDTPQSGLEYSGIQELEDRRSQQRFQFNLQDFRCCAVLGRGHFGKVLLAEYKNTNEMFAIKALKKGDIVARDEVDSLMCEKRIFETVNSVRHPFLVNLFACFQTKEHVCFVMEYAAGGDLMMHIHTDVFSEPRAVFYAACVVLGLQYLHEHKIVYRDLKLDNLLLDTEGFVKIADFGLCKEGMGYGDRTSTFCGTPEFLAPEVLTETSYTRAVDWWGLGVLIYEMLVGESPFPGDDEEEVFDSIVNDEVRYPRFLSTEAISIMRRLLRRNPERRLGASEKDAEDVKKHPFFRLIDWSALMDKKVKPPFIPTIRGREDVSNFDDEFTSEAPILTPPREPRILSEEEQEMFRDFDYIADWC
# experiment description: radiometric filter-binding kinase assay
# test parameters: compound 1.0 µM
reported property: residual activity (%)
# output: bare number, implied unit %

Asked: GET /values?readout=residual activity&item= CC(C)(C#N)c1ccc(N2C(=O)OCc3cnc4ccc(-c5cnc6ccccc6c5)cc4c32)cc1
Given back: 90

Asked: GET /values?readout=residual activity&item= O=C(Nc1ccccc1-c1cn2c(CN3CCNCC3)csc2n1)c1cnc2ccccc2n1
Given back: 103

Asked: GET /values?readout=residual activity&item= CN1C(=O)[C@@H](Cc2c[nH]c3ccccc23)NC1=S
Given back: 91

Asked: GET /values?readout=residual activity&item= Oc1ccc(/C=C/c2cc(O)cc(O)c2)cc1
Given back: 95

====

Field: residual activity. Provide a value for each of the compounds that follow.
# measured on: CDK2 CCNA2 (human) (UniProt P20248+P24941)
# experiment description: radiometric filter-binding kinase assay
# test parameters: compound 1.0 µM
# output: bare number, implied unit %

Asked: GET /values?readout=residual activity&item= Cc1ccc(-c2ccc3c(ccc4sc5c(c43)NC[C@@H](C)NC5=O)n2)cn1
Given back: 93

Asked: GET /values?readout=residual activity&item= NC(=O)c1cc2c(-c3cccc(-c4ccccc4)c3)cnc(N)c2s1
Given back: 87

Asked: GET /values?readout=residual activity&item= NCC(=O)Nc1ccc(-n2nc(C(F)(F)F)cc2-c2ccc3c(ccc4ccccc43)c2)cc1
Given back: 95

Asked: GET /values?readout=residual activity&item= C=CC(=O)N1CCC[C@@H](n2nc(-c3ccc(Oc4ccccc4)cc3)c3c(N)ncnc32)C1
Given back: 99

====

Field: residual activity. Provide a value for each of the compounds that follow.
# Test system: RPS6KB1 (human), P23443 [T412E]
# Sequence (P23443 whole entry T412E, looked up): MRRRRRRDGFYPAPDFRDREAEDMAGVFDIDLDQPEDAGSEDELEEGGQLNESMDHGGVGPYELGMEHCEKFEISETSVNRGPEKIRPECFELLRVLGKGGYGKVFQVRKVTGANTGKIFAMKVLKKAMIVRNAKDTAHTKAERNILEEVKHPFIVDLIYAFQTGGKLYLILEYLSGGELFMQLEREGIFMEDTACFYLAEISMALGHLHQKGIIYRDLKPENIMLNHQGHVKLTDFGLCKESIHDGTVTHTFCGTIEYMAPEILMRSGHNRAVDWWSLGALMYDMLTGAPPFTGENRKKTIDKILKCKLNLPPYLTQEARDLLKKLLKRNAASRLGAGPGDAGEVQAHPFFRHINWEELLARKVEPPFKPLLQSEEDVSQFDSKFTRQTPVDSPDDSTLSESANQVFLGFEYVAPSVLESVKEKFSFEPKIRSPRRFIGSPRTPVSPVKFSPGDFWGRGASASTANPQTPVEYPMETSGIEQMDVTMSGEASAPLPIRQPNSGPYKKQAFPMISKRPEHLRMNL
# experiment description: radiometric filter-binding kinase assay
# test parameters: compound 1.0 µM
# output: bare number, implied unit %

Asked: Look up residual activity with RPS6KB1 (human), P23443 [T412E] for this compound: NC(=O)c1c(NC(=O)C2CC2)sc2c1CCCC2
Given back: 100

Asked: Look up residual activity with RPS6KB1 (human), P23443 [T412E] for this compound: c1ccc2c(-c3cnn4cc(-c5ccc(N6CCNCC6)cc5)cnc34)ccnc2c1
Given back: 92

Asked: Look up residual activity with RPS6KB1 (human), P23443 [T412E] for this compound: O=C(NOCC(O)CO)c1ccc(F)c(F)c1Nc1ccc(I)cc1Cl (configuration not stated)
Given back: 94

Asked: Look up residual activity with RPS6KB1 (human), P23443 [T412E] for this compound: O=C1NC(=S)N[C@@H]1Cc1c[nH]c2ccccc12
Given back: 88

Asked: Look up residual activity with RPS6KB1 (human), P23443 [T412E] for this compound: COc1cc(C(=O)N2CCOCC2)c(F)cc1Nc1ncc(C(F)(F)F)c(NC2CC2)n1
Given back: 89

Asked: Look up residual activity with RPS6KB1 (human), P23443 [T412E] for this compound: O=C1Nc2nc(-c3c(O)cccc3OCC3CC3)cc(C3CCCNC3)c2CO1 (configuration not stated)
Given back: 102

Asked: Look up residual activity with RPS6KB1 (human), P23443 [T412E] for this compound: CCNc1nc(Nc2cc(F)c(C(=O)N3CCOCC3)cc2OC)ncc1C(F)(F)F
Given back: 89

====

# measured on: MKNK1 (human)
# experiment description: radiometric filter-binding kinase assay
# test parameters: compound 1.0 µM
satisfied means recorded residual activity is 90% or above; not satisfied means it is below 90%.

Asked: Is reported residual activity greater than or equal to 90% here: COc1ccc2c(c1)c1c3c(c4c5ccccc5n(C)c4c1n2CC(O)CN(C)C)C(=O)NC3=O (configuration not stated)
Given back: not satisfied

Asked: Is reported residual activity greater than or equal to 90% here: NS(=O)(=O)OC[C@@H]1C[C@@H](n2ccc3c(N[C@H]4CCc5ccccc54)ncnc32)C[C@@H]1O
Given back: satisfied

Asked: Is reported residual activity greater than or equal to 90% here: O=C(Nc1ccccc1-c1cn2c(CN3CCNCC3)csc2n1)c1cnc2ccccc2n1
Given back: satisfied

Asked: Is reported residual activity greater than or equal to 90% here: CN1C(=O)[C@@H](Cc2c[nH]c3ccccc23)NC1=S
Given back: not satisfied

Asked: Is reported residual activity greater than or equal to 90% here: O=C(NOCC(O)CO)c1ccc(F)c(F)c1Nc1ccc(I)cc1Cl (configuration not stated)
Given back: satisfied

Asked: Is reported residual activity greater than or equal to 90% here: O=C(NOC[C@H](O)CO)c1ccc(F)c(F)c1Nc1ccc(I)cc1Cl
Given back: satisfied

Asked: Is reported residual activity greater than or equal to 90% here: NCC(=O)Nc1ccc(-n2nc(C(F)(F)F)cc2-c2ccc3c(ccc4ccccc43)c2)cc1
Given back: not satisfied

Asked: Is reported residual activity greater than or equal to 90% here: O=C(N[C@@H](COc1ccc2[nH]c(=O)[nH]c2c1)c1ccccc1)c1cccn(Cc2ccc(F)c(F)c2)c1=O
Given back: satisfied

Asked: Is reported residual activity greater than or equal to 90% here: C=CC(=O)N1CCC[C@@H](n2nc(-c3ccc(Oc4ccccc4)cc3)c3c(N)ncnc32)C1
Given back: satisfied

Asked: Is reported residual activity greater than or equal to 90% here: Cn1c(=O)c2c(ncn2C)n(C)c1=O
Given back: satisfied

Asked: Is reported residual activity greater than or equal to 90% here: NC1(c2ccc(-c3nc4ccn5c(=O)[nH]nc5c4cc3-c3ccccc3)cc2)CCC1
Given back: satisfied

Asked: Is reported residual activity greater than or equal to 90% here: CNc1nc(-c2ccc3c(N)n[nH]c3c2)cc(N2C[C@@H](C(=O)NC3CCCCC3)CC[C@H]2C)n1
Given back: satisfied
